System: U251 CNS
Assay: NCI-60 one-dose screen, 48 h
Conditions: 10 µM unless noted
The panel holds about 83,000 compounds, 20% with a hit somewhere; the sample as a whole holds those more often. Activity calls are given as the source filed them. How the source made its calls: active means growth percent below 10; inactive means the rest.
Possible outcomes: y for active, n for inactive

1) Cc1ccc(O)c(C(=O)O)c1 = n
2) O=C(O)c1cn(C2CC2)c2cc(N3CCN(C(=O)C[n+]4cccc5ccccc54)CC3)c(F)cc2c1=O = n
3) CC(C)C1C2=C(NCCN1C(=O)Cc1ccccc1)C(C)(C)N(Cc1ccccc1)C2=O (stereo not drawn) = n
4) COc1ccc2c(/C=C3/C(=O)NC(=S)NC3C)cc(=O)oc2c1 (stereo not drawn) = n
5) c1ccc(C2CC(c3cccc(Nc4ccncc4)c3)=NN2c2ccccc2)cc1 (stereo not drawn) = n
6) COc1ccc(/C(=C\c2ccccc2)C(=O)O)cc1OC = n
7) CCOC(=O)Oc1c(OC)cc(C(=O)O[C@@H]2C[C@@H]3CN4CCc5c([nH]c6cc(OC)ccc56)[C@H]4C[C@@H]3[C@H](C(=O)OC)[C@H]2OC)cc1OC = n
8) Clc1ccc(N2N=C(c3cccc(Nc4ccncc4)c3)CC2c2ccc(Br)cc2)cc1 (stereo not drawn) = y
